Let's go through some pIC50 measurements on LRRK2 (Homo sapiens) together.
Sequence (Q5S007 whole entry): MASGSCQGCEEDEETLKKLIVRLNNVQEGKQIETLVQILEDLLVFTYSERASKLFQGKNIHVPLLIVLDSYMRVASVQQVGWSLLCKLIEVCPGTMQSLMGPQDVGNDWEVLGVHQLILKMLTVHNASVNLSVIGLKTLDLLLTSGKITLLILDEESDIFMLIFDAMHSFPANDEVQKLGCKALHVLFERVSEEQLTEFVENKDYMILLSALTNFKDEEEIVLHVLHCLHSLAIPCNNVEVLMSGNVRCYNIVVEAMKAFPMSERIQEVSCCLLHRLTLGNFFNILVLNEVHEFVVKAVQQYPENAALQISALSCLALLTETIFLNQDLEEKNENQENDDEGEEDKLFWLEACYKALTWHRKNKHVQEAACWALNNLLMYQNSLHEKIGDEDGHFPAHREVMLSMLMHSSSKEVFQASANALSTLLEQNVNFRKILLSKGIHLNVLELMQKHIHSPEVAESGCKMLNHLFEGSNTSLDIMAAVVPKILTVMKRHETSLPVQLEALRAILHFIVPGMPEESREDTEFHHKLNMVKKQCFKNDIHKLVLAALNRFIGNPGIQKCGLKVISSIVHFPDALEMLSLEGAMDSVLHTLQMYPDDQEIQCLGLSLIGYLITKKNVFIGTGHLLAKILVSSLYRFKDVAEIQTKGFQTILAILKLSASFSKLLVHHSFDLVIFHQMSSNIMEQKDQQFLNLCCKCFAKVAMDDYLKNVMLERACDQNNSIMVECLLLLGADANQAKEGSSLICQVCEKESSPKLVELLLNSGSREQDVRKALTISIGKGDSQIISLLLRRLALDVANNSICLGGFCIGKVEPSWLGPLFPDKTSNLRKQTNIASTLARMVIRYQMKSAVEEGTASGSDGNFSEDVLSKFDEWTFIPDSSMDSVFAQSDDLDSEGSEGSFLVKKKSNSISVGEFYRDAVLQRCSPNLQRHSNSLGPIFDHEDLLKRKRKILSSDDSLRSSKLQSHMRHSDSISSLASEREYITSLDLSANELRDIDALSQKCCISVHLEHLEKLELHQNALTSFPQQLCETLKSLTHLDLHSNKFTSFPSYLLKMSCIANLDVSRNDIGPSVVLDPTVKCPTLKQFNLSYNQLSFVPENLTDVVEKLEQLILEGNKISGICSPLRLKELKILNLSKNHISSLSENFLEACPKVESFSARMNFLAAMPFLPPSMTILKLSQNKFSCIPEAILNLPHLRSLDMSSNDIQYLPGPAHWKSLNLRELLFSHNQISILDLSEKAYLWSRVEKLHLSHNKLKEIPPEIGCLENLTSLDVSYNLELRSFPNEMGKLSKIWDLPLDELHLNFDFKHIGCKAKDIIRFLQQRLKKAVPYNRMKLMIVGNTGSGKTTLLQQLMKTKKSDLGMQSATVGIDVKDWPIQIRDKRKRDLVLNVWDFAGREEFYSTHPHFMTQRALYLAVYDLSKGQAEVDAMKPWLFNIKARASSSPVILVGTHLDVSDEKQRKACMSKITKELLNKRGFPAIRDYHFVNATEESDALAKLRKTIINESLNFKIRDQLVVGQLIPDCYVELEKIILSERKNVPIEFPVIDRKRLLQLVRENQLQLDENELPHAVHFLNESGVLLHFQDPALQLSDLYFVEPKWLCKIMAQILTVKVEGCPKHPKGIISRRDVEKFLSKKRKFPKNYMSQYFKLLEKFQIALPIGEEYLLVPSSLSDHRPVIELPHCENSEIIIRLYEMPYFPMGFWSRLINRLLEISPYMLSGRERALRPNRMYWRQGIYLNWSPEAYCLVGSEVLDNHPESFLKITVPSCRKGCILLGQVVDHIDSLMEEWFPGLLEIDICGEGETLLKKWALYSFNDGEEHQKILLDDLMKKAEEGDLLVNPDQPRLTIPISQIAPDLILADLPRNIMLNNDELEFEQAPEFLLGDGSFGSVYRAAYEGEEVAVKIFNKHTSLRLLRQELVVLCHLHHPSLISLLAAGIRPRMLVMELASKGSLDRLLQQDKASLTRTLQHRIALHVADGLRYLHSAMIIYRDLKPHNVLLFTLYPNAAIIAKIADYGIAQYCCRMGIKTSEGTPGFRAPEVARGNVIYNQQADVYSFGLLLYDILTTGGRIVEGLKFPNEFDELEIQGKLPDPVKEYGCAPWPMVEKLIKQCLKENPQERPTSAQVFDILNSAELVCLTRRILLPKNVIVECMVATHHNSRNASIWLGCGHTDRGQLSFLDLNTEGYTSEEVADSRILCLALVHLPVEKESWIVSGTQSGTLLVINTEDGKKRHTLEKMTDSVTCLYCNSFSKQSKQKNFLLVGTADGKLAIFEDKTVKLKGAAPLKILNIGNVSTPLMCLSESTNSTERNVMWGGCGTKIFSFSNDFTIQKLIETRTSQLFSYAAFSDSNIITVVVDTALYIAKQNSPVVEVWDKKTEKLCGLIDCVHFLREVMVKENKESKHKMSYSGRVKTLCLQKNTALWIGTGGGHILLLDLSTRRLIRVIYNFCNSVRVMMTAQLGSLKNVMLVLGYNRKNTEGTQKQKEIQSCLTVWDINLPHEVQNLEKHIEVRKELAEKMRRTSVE
Just the number, please; pIC50 means minus log10 of the concentration in mol/L.

q: Fill blank: measured pIC50 of the molecule CC[C@H](C)Oc1nn(C)cc1Nc1ncc2cc(C#N)n([C@@H]3COC[C@@H]3OC)c2n1 is ____.
a: 6.53

q: Moving on to [2H]c1c(Nc2ncc3cc(C#N)n([C@H]4COC[C@@H]4C)c3n2)c(OC2COC2)nn1C
a: 8.15

q: Moving on to CC[C@@H]1COC[C@H]1n1c(C#N)cc2cnc(Nc3cn(C)nc3OC(C)C)nc21 (racemic)
a: 7.96

q: Moving on to CO[C@H]1COC[C@H]1n1c(C#N)cc2cnc(Nc3cn(C(C)C#N)nc3OC3CC3)nc21 (some centres unmarked)
a: 7.82

q: Moving on to CC1COCCC1n1c(C#N)cc2cnc(Nc3cn(C)nc3OC3COC3)nc21 (single isomer, unassigned) [Example 86]
a: 6.36

q: Moving on to Cn1cc(Nc2ncc3cc(C#N)n(C4CCOC4)c3n2)c(OC2COC2)n1 (single isomer, unassigned) [Example 52]
a: 7.59

q: Moving on to CC1COCCC1n1c(C#N)cc2cnc(Nc3cn(C)nc3OC3COC3)nc21 (single isomer, unassigned) [Example 85]
a: 7.39

q: Moving on to CC(C)Oc1nn(C(C)C#N)cc1Nc1ncc2cc(C#N)n([C@@H]3COC[C@@H]3C)c2n1 (single isomer, unassigned)
a: 6.56

q: Moving on to CC[C@H]1COC[C@H]1n1c(C#N)cc2cnc(Nc3cn(C)nc3OC(C)C)nc21 (racemic)
a: 7.08

q: Moving on to C[C@@H]1COCC[C@H]1n1c(C#N)cc2cnc(Nc3cn(C)nc3OC3COC3)nc21 (single isomer, unassigned) [Example 84]
a: 8.15

---

# target-under-test: full-length LRRK2 G2019S (Homo sapiens, UniProt Q5S007, G2019S)
# Construct: DYKDDDDK (FLAG)
# Sequence (Q5S007 whole entry G2019S): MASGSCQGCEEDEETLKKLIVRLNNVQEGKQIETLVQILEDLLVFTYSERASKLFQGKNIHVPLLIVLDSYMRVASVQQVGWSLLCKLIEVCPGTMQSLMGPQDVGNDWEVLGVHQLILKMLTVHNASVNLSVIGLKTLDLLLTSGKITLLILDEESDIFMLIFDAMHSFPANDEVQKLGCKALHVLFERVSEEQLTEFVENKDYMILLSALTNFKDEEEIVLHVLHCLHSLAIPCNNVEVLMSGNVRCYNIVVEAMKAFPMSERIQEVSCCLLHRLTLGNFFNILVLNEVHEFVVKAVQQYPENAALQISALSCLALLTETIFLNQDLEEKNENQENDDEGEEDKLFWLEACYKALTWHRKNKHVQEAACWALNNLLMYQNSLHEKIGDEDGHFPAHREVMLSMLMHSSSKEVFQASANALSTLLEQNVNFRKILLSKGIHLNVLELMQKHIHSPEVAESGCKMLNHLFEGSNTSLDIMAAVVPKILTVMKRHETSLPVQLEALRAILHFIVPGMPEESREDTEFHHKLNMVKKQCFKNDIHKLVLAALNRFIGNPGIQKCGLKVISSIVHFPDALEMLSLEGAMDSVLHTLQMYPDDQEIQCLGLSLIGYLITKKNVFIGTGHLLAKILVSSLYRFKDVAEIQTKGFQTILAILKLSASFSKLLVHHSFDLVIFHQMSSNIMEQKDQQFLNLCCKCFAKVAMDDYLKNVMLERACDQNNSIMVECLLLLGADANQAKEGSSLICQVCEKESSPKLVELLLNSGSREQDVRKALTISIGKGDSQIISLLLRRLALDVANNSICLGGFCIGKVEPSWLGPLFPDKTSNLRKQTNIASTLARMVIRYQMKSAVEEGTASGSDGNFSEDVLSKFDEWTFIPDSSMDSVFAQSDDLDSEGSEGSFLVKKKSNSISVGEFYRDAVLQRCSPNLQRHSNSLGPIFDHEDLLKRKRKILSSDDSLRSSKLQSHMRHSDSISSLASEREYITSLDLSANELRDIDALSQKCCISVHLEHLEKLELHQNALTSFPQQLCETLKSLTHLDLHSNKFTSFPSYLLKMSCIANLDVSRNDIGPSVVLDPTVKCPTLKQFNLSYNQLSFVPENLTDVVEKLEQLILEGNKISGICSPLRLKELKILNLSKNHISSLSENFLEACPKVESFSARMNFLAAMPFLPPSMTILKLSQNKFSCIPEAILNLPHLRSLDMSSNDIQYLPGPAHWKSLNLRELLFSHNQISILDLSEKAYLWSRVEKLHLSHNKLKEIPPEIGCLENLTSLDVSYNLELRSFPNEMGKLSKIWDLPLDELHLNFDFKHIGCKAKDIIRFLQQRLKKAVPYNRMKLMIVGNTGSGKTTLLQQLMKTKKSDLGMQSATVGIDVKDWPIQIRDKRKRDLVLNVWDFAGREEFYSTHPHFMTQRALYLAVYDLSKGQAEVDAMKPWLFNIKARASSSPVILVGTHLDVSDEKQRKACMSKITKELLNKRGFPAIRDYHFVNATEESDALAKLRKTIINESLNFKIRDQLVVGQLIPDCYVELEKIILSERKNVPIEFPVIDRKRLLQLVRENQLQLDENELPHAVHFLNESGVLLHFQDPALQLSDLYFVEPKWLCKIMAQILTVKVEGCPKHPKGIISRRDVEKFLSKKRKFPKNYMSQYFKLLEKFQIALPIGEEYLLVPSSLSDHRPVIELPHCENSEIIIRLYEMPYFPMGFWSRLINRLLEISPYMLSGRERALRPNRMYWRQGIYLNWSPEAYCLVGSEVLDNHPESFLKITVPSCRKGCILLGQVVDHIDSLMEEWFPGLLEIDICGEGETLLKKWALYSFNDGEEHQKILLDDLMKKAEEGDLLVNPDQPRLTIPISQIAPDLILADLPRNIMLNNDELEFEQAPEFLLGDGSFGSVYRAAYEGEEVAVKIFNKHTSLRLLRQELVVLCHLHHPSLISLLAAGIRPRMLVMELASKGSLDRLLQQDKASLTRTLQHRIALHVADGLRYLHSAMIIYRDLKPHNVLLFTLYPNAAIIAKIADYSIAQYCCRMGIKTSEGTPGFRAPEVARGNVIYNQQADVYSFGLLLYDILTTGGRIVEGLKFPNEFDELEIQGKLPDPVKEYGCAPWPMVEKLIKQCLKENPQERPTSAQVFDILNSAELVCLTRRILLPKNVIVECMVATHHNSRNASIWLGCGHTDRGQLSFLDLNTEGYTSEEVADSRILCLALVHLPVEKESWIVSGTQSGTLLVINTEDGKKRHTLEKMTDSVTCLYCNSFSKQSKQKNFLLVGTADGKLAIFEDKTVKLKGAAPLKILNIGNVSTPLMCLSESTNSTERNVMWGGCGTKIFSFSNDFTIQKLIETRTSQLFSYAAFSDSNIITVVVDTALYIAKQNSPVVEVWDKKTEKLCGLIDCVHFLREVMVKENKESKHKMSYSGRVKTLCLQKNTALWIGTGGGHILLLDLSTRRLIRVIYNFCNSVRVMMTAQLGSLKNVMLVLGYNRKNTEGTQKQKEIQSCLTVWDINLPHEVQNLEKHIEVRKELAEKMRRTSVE
# test-name: LRRK2-G2019S kinase activity assay (Lanthascreen TR-FRET)
# experimental-setup: 1.1 mM ATP
Decide using IC50 alone. Strictly below 8 nM: yes. Equal to or above 8 nM: no.

q: Determine whether this compound shows IC50 lower than 8 nM (ties excluded): CO[C@H]1COC[C@H]1n1c(C#N)cc2cnc(Nc3ccc(C(C)(C)O)cc3OC3COC3)nc21
a: no

q: Moving on to [2H]C([2H])([2H])n1cc(Nc2ncc3cc(C#N)n([C@@H](C)COC)c3n2)c(O[C@@H]2COC[C@H]2O)n1 (single isomer, unassigned) [Example 117]
a: no

q: Moving on to C[C@H]1COC[C@H]1n1c(C#N)cc2cnc(Nc3cn(C)nc3OC3COC3)nc21 (single isomer, unassigned) [Example 46]
a: no

q: Moving on to CC(=O)N1CC(Oc2nn(C)cc2Nc2ncc3cc(C#N)n([C@H]4COC[C@@H]4C)c3n2)C1
a: yes

q: Moving on to CC(Oc1nn(C)cc1Nc1ncc2cc(C#N)n([C@H]3COC[C@@H]3C)c2n1)C(F)(F)F (single isomer, unassigned) [Example 22]
a: no

q: Moving on to C[C@H]1COC[C@@H]1n1c(C#N)cc2cnc(Nc3cn(C)nc3OCC(C)(C)O)nc21
a: yes

q: Moving on to CO[C@@H]1COC[C@H]1n1c(C#N)cc2cnc(Nc3ccc(C(C)(C)O)cc3OC3COC3)nc21 (racemic)
a: no

q: Moving on to C[C@H]1COC[C@@H]1n1c(C#N)cc2cnc(Nc3ccc(CN(C)C)cc3OC3CC3)nc21
a: yes

q: Moving on to CC(C)Oc1nn(C(C)(C)C#N)cc1Nc1ncc2cc(C#N)n([C@H]3COC[C@@H]3C)c2n1
a: yes

q: Moving on to COC[C@H](C)n1c(C#N)cc2cnc(Nc3cn(CCO)nc3OC3CCOCC3)nc21
a: no

q: Moving on to CC(Oc1nn(C2COC2)cc1Nc1ncc2cc(C#N)n([C@H]3COC[C@@H]3C)c2n1)C(F)(F)F (single isomer, unassigned) [Example 11]
a: no

q: Moving on to C[C@H]1COC[C@@H]1n1c(C#N)cc2cnc(Nc3ccc(C(C)(C)O)cc3OC3COC3)nc21
a: yes

q: Moving on to C[C@@H]1COC[C@H]1n1c(C#N)cc2cnc(Nc3cn(C)nc3OC3COC3)nc21
a: no

Entry source: patent US20240383901A1
